# Method Description: Refractive index (RI) measured at 20° C.
# Assay type: physicochemical
# Condition Label: refractive index; preparative examples

Compound | nD^20
C=CC(=O)N(C/C=C/CN(CCC)C(=O)C=C)CCC [(Ic)] | 1.5095
C=CCN(C/C=C/CN(CC=C)C(C)=O)C(C)=O [(C1)] | 1.505
C=CC(=O)N(CCC)CCCCN(CCC)C(=O)C=C [(C3)] | 1.515
C=CCN(C/C=C/C(C)N(CC=C)C(=O)C=C)C(=O)C=C (centres unmarked) [Compound (Ib)] | 1.526
C=CCN(CCCCN(CC=C)C(=O)C=C)C(=O)C=C [(C2)] | 1.515
